# Assay info: Inhibition of Trypanosoma vivax Inosine-adenosine-guanosine-nucleoside hydrolase
pKi: −log10 of the molar value.
Where pKi equals or exceeds 6, the correct label is met; where it does not, the label is not met.

item_smiles=OC[C@@H]1[C@@H](O)[C@@H](O)CN1Cc1ccccc1 classification="not met"
item_smiles=O=[N+]([O-])c1cccc(CN2C[C@H](O)[C@H](O)[C@H]2CO)c1 classification="not met"
item_smiles=OC[C@@H]1[C@@H](O)[C@@H](O)CN1Cc1ccncc1 classification="not met"
item_smiles=OC[C@@H]1[C@@H](O)[C@@H](O)CN1Cc1c[nH]c2c(O)ncnc12 classification=met
item_smiles=OC[C@@H]1[C@@H](O)[C@@H](O)CN1CCc1c[nH]c2ccccc12 classification="not met"

Please tell me: is the molecule `Nc1ncnc2c(CN3C[C@H](O)[C@H](O)[C@H]3CO)c[nH]c12` at or over 6 in terms of pKi?
met

Exam item: decide whether the reported pKi for `Cc1nn(-c2ccccc2)nc1CN1C[C@H](O)[C@H](O)[C@H]1CO` is at least 6.
met

Can `OC[C@@H]1[C@@H](O)[C@@H](O)CN1Cc1ccnc2ccccc12` be said to have pKi at or above 6?
not met

Identify whether the reported pKi of the following molecule is 6 or greater: `Cn1c(CN2C[C@H](O)[C@H](O)[C@H]2CO)nc2ccccc21`
not met

Given `COc1cccc2c(CN3C[C@H](O)[C@H](O)[C@H]3CO)c[nH]c12` , state whether its pKi is at least 6.
not met

Is pKi for `OC[C@@H]1[C@@H](O)[C@@H](O)CN1Cc1cccc2cncnc12` at or above 6?
met

Please check the record `N=C(N)Nc1ccc(CN2C[C@H](O)[C@H](O)[C@H]2CO)cc1` and state if its pKi is at or above 6.
not met

In plain terms: is recorded pKi at least 6 for `Cc1nc(-c2ccccc2)ncc1CN1C[C@H](O)[C@H](O)[C@H]1CO` ?
not met

Check if pKi >= 6 (inclusive). Item: `OC[C@@H]1[C@@H](O)[C@@H](O)CN1Cc1cccc2c(Cl)ccnc12`
met

Is it the case that `OC[C@@H]1[C@@H](O)[C@@H](O)CN1Cc1c[nH]c2ccccc12` has pKi reaching or exceeding 6?
not met

Given `OC[C@@H]1[C@@H](O)[C@@H](O)CN1Cc1cnc2ccccc2c1` , state whether its pKi is at least 6.
not met

Answer whether pKi of `O=c1[nH]cnc2c(CN3C[C@H](O)[C@H](O)[C@H]3CO)csc12` is greater than or equal to 6.
met
